Experiment: ACEA_AR_agonist_AUC_viability: ACEA Biosciences xCELLigence Real-Time Cell Analysis on Androgen Receptor Agonism for Viability (AID 2283775)
Results filed as inconclusive are left out. The source made the active and inactive calls. Rule for the calls: active = hit-call score of the fitted dose curve at least 0.9, where 1 is the maximum; inconclusive = response in the unintended direction; inactive = score below 0.9.
Outcomes: label 1 = active, label 0 = inactive

{"compound": "CC(Cc1ccc(OCC(=O)O)cc1)NCC(O)c1csc(C(F)(F)F)n1 (stereo unspecified)", "className": "label 0"}
{"compound": "CCOc1ccc(C(C)(C)COCc2cccc(Oc3ccccc3)c2)cc1", "className": "label 0"}
{"compound": "O=[N+]([O-])c1ccccc1", "className": "label 0"}
{"compound": "Cc1ccc([N+](=O)[O-])cc1C", "className": "label 0"}
{"compound": "O=C(O)CF", "className": "label 0"}
{"compound": "OCC1CO1 (stereo unspecified)", "className": "label 0"}
{"compound": "ClC(Cl)c1ccccc1", "className": "label 0"}
{"compound": "O=c1ssc(Cl)c1Cl", "className": "label 1"}
{"compound": "O=C(O)C(Cl)Cl", "className": "label 0"}
{"compound": "O=C(O)C1C(C(=O)O)C2(Cl)C(Cl)=C(Cl)C1(Cl)C2(Cl)Cl (stereo unspecified)", "className": "label 0"}
{"compound": "ClC(Cl)(Cl)c1ccccc1", "className": "label 0"}
{"compound": "CCNc1nc(Cl)nc(NC(C)(C)C)n1", "className": "label 0"}
{"compound": "CCCCN(CCCC)N=O", "className": "label 0"}
{"compound": "CCCN(CCC)c1c([N+](=O)[O-])cc(C(C)C)cc1[N+](=O)[O-]", "className": "label 1"}
{"compound": "CCCCOCCOP(=O)(OCCOCCCC)OCCOCCCC", "className": "label 0"}
{"compound": "Nc1cc2c3c(c1)C(c1ccccc1)=N[C@@H](NC(=O)c1cccnc1)C(=O)N3CC2", "className": "label 0"}
{"compound": "CCCCN(CC)C(=O)SCCC", "className": "label 0"}
{"compound": "CCOP(=S)(OCC)SCSCC", "className": "label 1"}
{"compound": "CCC1(c2ccccc2)C(=O)N=C(O)NC1=O (stereo unspecified)", "className": "label 0"}
{"compound": "CCCCN(CCCC)SN(C)C(=O)Oc1cccc2c1OC(C)(C)C2", "className": "label 1"}
{"compound": "Nc1ccc(Cl)cc1", "className": "label 1"}
{"compound": "Cc1cccc(N)c1", "className": "label 0"}
{"compound": "O=S(=O)(c1ccc(O)cc1)c1ccc(O)cc1", "className": "label 0"}
{"compound": "CCCCCCCc1ccc(O)cc1", "className": "label 1"}
{"compound": "CC(C)(C)N(NC(=O)c1ccc(Cl)cc1)C(=O)c1ccccc1", "className": "label 0"}
{"compound": "c1ccc2c(c1)Nc1ccccc1S2", "className": "label 0"}

* * *

Test: CEETOX_H295R_CORTIC: CeeTox H295R High-throughput Steroidogenesis Assay for Corticosterone (CORTIC) (AID 2283437);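 note: corticosterone secreted into medium quantified by mass spectrometry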;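 for AC50: human H295R adrenal cells prestimulated with forskolin before chemical exposure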
Details: actives raise or lower the signal
Calls of active or inactive are those of the source. The calls were made as follows: active = hit-call score of the fitted dose curve at least 0.9, where 1 is the maximum; inactive = score below 0.9.

{"molecule": "CCOP(=S)(OCC)SCn1nnc2ccccc2c1=O", "AC50": "inactive"}
{"molecule": "CCCCOCCOP(=O)(OCCOCCCC)OCCOCCCC", "AC50": "inactive"}
{"molecule": "CC(=O)c1ccc(-c2ccccc2)cc1", "AC50": "18.9 µM (active)"}
{"molecule": "Nc1ccc(Cl)cc1", "AC50": "inactive"}
{"molecule": "CO/N=C(/C(=O)OC)c1ccccc1COc1ccccc1C", "AC50": "inactive"}
{"molecule": "CCOP(=S)(NC(C)C)Oc1ccccc1C(=O)OC(C)C (stereo unspecified)", "AC50": "6.94 µM (active)"}
{"molecule": "COP(N)(=S)OC", "AC50": "inactive"}
{"molecule": "c1ccc(OP(Oc2ccccc2)Oc2ccccc2)cc1", "AC50": "inactive"}
{"molecule": "O=P(Oc1ccccc1)(Oc1ccccc1)Oc1ccccc1", "AC50": "inactive"}
{"molecule": "CCNc1nc(Cl)nc(NC(C)(C)C)n1", "AC50": "inactive"}
{"molecule": "Nc1ccc([N+](=O)[O-])cc1Cl", "AC50": "inactive"}
